MIC, Streptococcus pyogenes EES61, per-entry values.
Answer with a number only, understood to be in µg/mL.

Field: example entries. Status: answers known.
CC[C@H]1OC(=O)[C@H](C)C(=O)[C@H](C)[C@@H](O[C@@H]2O[C@H](C)C[C@H](N(C)C)[C@H]2O)[C@](C)(OCC#Cc2ccc(-c3ccc(F)cc3)s2)C[C@@H](C)C(=O)[C@H](C)[C@H]2NC(=O)O[C@@]21C [Example 22] = 0.39
CC[C@H]1OC(=O)[C@H](C)C(=O)[C@H](C)[C@@H](O[C@@H]2O[C@H](C)C[C@H](N(C)C)[C@H]2O)[C@](C)(OC/C=C/c2cncc(-c3ncccn3)c2)C[C@@H](C)C(=O)[C@H](C)[C@H]2NC(=O)O[C@@]21C [Example 46] = 0.02
CC[C@H]1OC(=O)[C@H](C)C(=O)[C@H](C)[C@@H](O[C@@H]2O[C@H](C)C[C@H](N(C)C)[C@H]2O)[C@](C)(OCC#Cc2ccc(-c3cncc(C(=O)NN(C)C)c3)s2)C[C@@H](C)C(=O)[C@H](C)[C@H]2NC(=O)O[C@@]21C [Example 12] = 0.05

Let's switch to this molecule now.
The recorded MIC for entry CC[C@H]1OC(=O)[C@H](C)C(=O)[C@H](C)[C@@H](O[C@@H]2O[C@H](C)C[C@H](N(C)C)[C@H]2O)[C@](C)(OCC#Cc2ccc(-c3ccc(Cl)s3)s2)C[C@@H](C)C(=O)[C@H](C)[C@H]2NC(=O)O[C@@]21C [Example 26] equals 0.02
